These measurements were taken from patent US20070009938.

Kd values, listed per item
System: wt bZIP (GCN4 basic region - C/EBP leucine zipper hybrid), synthetic (artificial (yeast GCN4 / C/EBP))
Sequence (chain, as listed by the source): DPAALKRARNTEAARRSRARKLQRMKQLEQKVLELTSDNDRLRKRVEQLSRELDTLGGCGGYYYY
measurement protocol: EMSA
condition parameters: saturation not achieved
# value in µM; strip the unit string

Example entries begin here.
TGCAGGAAGCACGTAGTGAAGGTT (double strand) [HRE]
1.4
TGCAGGAATCACGTGATGAAGGTT (double strand) [Arnt E-box]
0.57

Input line: Fill in Kd for record TGCAGGAACCACGTGGTGAAGGTT (double strand) [Max E-box]
Output line: 0.84

---

Test system: wt bZIP (GCN4 basic region - C/EBP leucine zipper hybrid), synthetic (artificial (yeast GCN4 / C/EBP))
measurement protocol: EMSA
condition parameters: apparent monomeric Kd; pH 7.5
recorded metric: Kd (nM)
# value in nM; strip the unit string

Example entries begin here.
TGCAGGAATGACGTCATGAAGGTT (double strand) [CRE]
12
TGCAGGAATGACTCATTGAAGGTT (double strand) [AP-1]
13
TGCAGGAATGACTGAAGGTT (double strand) [AP-1 half site]
84
TGCAGGAAGACTAACCTGAAGGTT (double strand) [Partial site / NON2]
280
TGCAGGAATTGCGCAATGAAGGTT (double strand) [C/EBP]
120

Input line: Fill in Kd for record TGCAGGAATTGCGTGATGAAGGTT (double strand) [XRE1]
Output line: 240

---

System: wt bZIP (GCN4 basic region - C/EBP leucine zipper hybrid), expressed (artificial (yeast GCN4 / C/EBP))
Sequence (chain, as listed by the source): as the sequence (chain, as listed by the source) above
measurement protocol: EMSA
condition parameters: saturation not achieved
pKd: −log10 of the molar value.
recorded metric: pKd

Input line: Fill in pKd for record TGCAGGAATTGCTGAAGGTT (double strand) [C/EBP half site]
Output line: < 5.82
